assay.info: Induction of H2S generation assessed as half life at 150 uM incubated at 22 degC and pH 8 by fluorescence spectrophotometry
Type: functional
Parameter T1/2: see the listing below.
// return numeric value only (unit: min, not printed)

The examples below pair each entry with its known result.
O=C(O)[C@@H]1CCCN1P(O)(=S)c1ccccc1 (stereo partly drawn)
10.8
S=P1(c2ccccc2)NCCCN1
29

# input for lookup
(Q) Item under review: `S=P1(c2ccccc2)OCCCO1` . Reported T1/2?
(A) 33

====

Tested on: HT-29
assay.info: Cytotoxicity in human HT-29 cells assessed as growth inhibition incubated for 24 hrs by MTT assay
Type: functional, cell-based
test.parameters: HT-29, 24 h
recorded.endpoint: pIC50
Notebook: values listed as pIC50 are -log10 of the concentration (mol/L).

C[C@H](NP(O)(=S)c1ccccc1)C(=O)O (some centres undefined)
3.16
S=P1(c2ccccc2)NCCCN1
3.22
S=P1(c2ccccc2)OCC2CCCN21 (centres undefined)
3.20
S=P1(c2ccccc2)NCCCO1 (centres undefined)
2.98
CC(C)[C@H](NP(O)(=S)c1ccccc1)C(=O)O (some centres undefined)
3.22

(Q) # lookup: pIC50 of CC[C@H](C)[C@H](NP(O)(=S)c1ccccc1)C(=O)O (some centres undefined)
(A) 3.11

(Q) Entry O=C([O-])[C@H](Cc1cc2ccccc2[nH]1)NP([O-])(=S)c1ccccc1.[Li+].[Li+] (some centres undefined) has what pIC50?
(A) 3.13

(Q) Can you share its pIC50? I mean this compound: O=C(O)[C@H](Cc1ccccc1)NP(O)(=S)c1ccccc1 (some centres undefined)
(A) 3.27

(Q) I would be grateful if you could share the reported pIC50 for S=P1(c2ccccc2)NCCO1 (centres undefined) .
(A) 3.27

====

assay.info: Induction of H2S generation assessed as half life at 150 uM incubated at 22 degC and pH 8 by fluorescence spectrophotometry
Type: functional
recorded.endpoint: T1/2 (min)
Write the number in min without appending the unit.

Record excerpt, results attached:
S=P1(c2ccccc2)NCCO1 (centres undefined)
31.3
CC(C)C[C@H](NP(O)(=S)c1ccccc1)C(=O)O (some centres undefined)
4.44

(Q) T1/2 for CC[C@H](C)[C@H](NP(O)(=S)c1ccccc1)C(=O)O (some centres undefined) ?
(A) 4.04

(Q) // lookup T1/2 for `S=P1(c2ccccc2)OCCO1`
(A) 26.5
